Target: hCB1R (Homo sapiens)
Sequence (P21554 whole entry): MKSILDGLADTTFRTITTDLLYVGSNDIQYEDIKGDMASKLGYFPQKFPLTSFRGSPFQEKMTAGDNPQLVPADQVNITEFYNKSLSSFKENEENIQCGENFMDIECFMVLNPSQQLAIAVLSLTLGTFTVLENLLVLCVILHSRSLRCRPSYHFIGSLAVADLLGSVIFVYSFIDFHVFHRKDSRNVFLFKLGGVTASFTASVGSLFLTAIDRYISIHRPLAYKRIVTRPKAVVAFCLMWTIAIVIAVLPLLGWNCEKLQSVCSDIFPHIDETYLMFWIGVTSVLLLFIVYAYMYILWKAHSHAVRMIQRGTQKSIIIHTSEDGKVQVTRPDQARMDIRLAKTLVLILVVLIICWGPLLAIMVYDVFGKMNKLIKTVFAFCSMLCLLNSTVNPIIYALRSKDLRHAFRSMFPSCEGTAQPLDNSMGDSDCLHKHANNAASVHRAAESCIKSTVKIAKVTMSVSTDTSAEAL
Assay: Calcium mobilization assay, antagonist mode against CP55,940
Assay type: cell-based
Design: expressed in transfected cells; host or cells: CHO-RD-HGA16 cells (parental line from Molecular Devices)
pIC50: −log10 of the molar value.
Here the recorded pIC50 is given for each entry.

COMPOUND: O=C(NCCc1c(F)cccc1Cl)Nc1ccc(Cl)cc1 [Compound 70]
BOUND OPERATOR: =
pIC50: 6.39
--
COMPOUND: CN(C)c1ccc(CCNC(=O)Nc2ccc(Cl)cc2)cc1 [Compound 51]
BOUND OPERATOR: =
pIC50: 6.49
--
COMPOUND: COc1cc(CCNC(=O)Nc2ccc(Cl)cc2)ccc1O [Compound 49]
BOUND OPERATOR: <
pIC50: 5.00
--
COMPOUND: O=C(NCCc1ccc([N+](=O)[O-])cc1)Nc1ccc(Cl)cc1 [Compound 48]
BOUND OPERATOR: =
pIC50: 7.06
--
COMPOUND: O=C(NCCc1c(F)cc(F)cc1F)Nc1ccc(Cl)cc1 [Compound 65]
BOUND OPERATOR: =
pIC50: 7.09

Hey, just so you know, these numbers are from patent US20220332695A1.
